// data source = PubChem BioAssay AID652216

# study target: Serine/threonine-protein phosphatase PP1-alpha catalytic subunit (Homo sapiens) (UniProt P62136)
# Sequence (P62136 whole entry, looked up): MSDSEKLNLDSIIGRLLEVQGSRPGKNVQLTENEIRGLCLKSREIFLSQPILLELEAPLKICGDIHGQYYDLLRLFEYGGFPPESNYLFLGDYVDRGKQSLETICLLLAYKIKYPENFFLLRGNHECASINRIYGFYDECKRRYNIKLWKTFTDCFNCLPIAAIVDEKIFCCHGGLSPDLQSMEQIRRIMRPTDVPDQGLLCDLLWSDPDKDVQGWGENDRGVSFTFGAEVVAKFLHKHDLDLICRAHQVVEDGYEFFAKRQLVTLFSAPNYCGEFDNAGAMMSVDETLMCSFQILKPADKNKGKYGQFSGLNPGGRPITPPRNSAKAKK
# measurement notes: PP1 inhibitor potency with OMFP substrate, dose response, biochemical, fluorescence, set 4 (AID 652216)
# condition context: purified PP1alpha, OMFP dephosphorylation fluorescence
Active and inactive are the calls of the source.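 Rule for the calls: active = IC50 below 10 µM against protein phosphatase 1 in the dose response test; inactive = IC50 of 10 µM or more.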
Just give me one of these, please: active, inactive

- molecule: "CN1CCN([C@H](c2ccc(C(F)(F)F)cn2)c2ccc3cccnc3c2O)CC1"
  assigned label: "active"
- molecule: "CN1CCN([C@@H](c2ccc(C(F)(F)F)cn2)c2ccc3cccnc3c2O)CC1"
  assigned label: "active"
- molecule: "CN1CCN(C(c2ccc(C(F)(F)F)cn2)c2ccc3cccnc3c2O)CC1 (centres undefined)"
  assigned label: "active"

Incoming: Test call for this molecule, please: CN1CCN(C(c2cccc(F)n2)c2ccc3cccnc3c2O)CC1 (centres undefined)
Outgoing: inactive
